The reader will find reported % binding (parent = 100) values listed item by item below.
biological target: T1, human C5 (human, UniProt P01031 19-673; P01031 678-1676, Beta and alpha chains are disulfide-linked and the protein is glycosylated.); assay: Biacore, captured antibody, pH 7.4, 37 C;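 also: biacore binding response of anti-C5 antibody light chain variants captured on chip with human C5 injected, ACES running buffer containing 1.2 mM CaCl₂, parent light chain antibody set to 100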
T1 construct: Either in-house recombinant C5 or plasma derived C5 (CALBIOCHEM) was used; also called recombinant human C5; plasma derived human C5
Answer in %, number only, no unit symbol.

The cases that follow already have their % binding (parent = 100) on record.
{"columns": ["binder", "% binding (parent = 100), %"],
 "data": [
  ["CFP0017 17L 92S (antibody, V domains shown) VH: QVQLVQSGAEVKKPGSSVKVSCKASGGTFSSYAISWVRQAPGQGLEWMGGIIPIFGTANYAQKFQGRVTITADESTSTAYMELSSLRSEDTAVYYCARGGWWGGALDYWGQGTLVTVSS VL: DIQMTQSPSSLSASVGDRVTITCRASQSIEDDLAWYQQKPGKAPKLLIYHASSLQSGVPSRFSGSGSGTDFTLTISSLQPEDFATYYCQQSSSYPLTFGQGTKVEIK", 79],
  ["CFP0018 18L 96V (antibody, V domains shown) VH: QVQLVQSGAEVKKPGSSVKVSCKASGGTFSSYAISWVRQAPGQGLEWMGGIIPIFGTANYAQKFQGRVTITADESTSTAYMELSSLRSEDTAVYYCARQLYGYYELDIWGQGTLVTVSS VL: DIQMTQSPSSLSASVGDRVTITCRASQSISDDLAWYQQKPGKAPKLLIYEASSLQSGVPSRFSGSGSGTDFTLTISSLQPEDFATYYCQQYNSYPVTFGQGTKVEIK", 70.3],
  ["CFP0015 15L 31Y (antibody, V domains shown) VH: QVQLLESGGGLVQPGGSLRLSCAASGFTFSSYAMSWVRQAPGKGLEWVSAISGSGGSTYYADSVKGRFTISRDNSKNTLYLQMNSLRAEDTAVYYCARGDQIWYDQWYYFDMWGQGTLVTVSS VL: DIQMTQSPSSLSASVGDRVTITCRASQSIEYDLAWYQQKPGKAPKLLIYEASNLQSGVPSRFSGSGSGTDFTLTISSLQPEDFATYYCQQYDSSPLTFGQGTKVEIK", 102],
  ["CFP0021 21L 34N (antibody, V domains shown) VH: QVQLVESGGGLVQPGGSLRLSCAASGFTFSDHYMDWVRQAPGKGLEWVGRTRNKANSYTTEYAASVKGRFTISRDDSKNSLYLQMNSLKTEDTAVYYCARTGMMYWGIFDVWGQGTLVTVSS VL: DIQMTQSPSSLSASVGDRVTITCRASQSIEDDLNWYQQKPGKAPKLLIYHASTLQSGVPSRFSGSGSGTDFTLTISSLQPEDFATYYCQQHDSYPLTFGQGTKVEIK", 14.4],
  ["CFP0018 18L 92E (antibody, V domains shown) VH: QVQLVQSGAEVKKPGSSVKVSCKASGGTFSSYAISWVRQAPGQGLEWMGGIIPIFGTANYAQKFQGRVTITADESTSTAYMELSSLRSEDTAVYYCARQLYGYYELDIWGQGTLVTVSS VL: DIQMTQSPSSLSASVGDRVTITCRASQSISDDLAWYQQKPGKAPKLLIYEASSLQSGVPSRFSGSGSGTDFTLTISSLQPEDFATYYCQQYESYPLTFGQGTKVEIK", 40.9]
]}

Now for another entry.
What does the record list as % binding (parent = 100) for CFP0018 18L 94F (antibody, V domains shown) VH: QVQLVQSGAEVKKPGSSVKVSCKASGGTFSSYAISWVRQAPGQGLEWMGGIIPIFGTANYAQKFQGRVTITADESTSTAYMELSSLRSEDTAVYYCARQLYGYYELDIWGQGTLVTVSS VL: DIQMTQSPSSLSASVGDRVTITCRASQSISDDLAWYQQKPGKAPKLLIYEASSLQSGVPSRFSGSGSGTDFTLTISSLQPEDFATYYCQQYNSFPLTFGQGTKVEIK ?
28.6
